Where do the numbers come from? From patent US10993984B2.

assay: in vivo; details: dog, iv, 0.2 mg
Bridge positions count the residues as written; N and C are the ends. Peptide text beside a SMILES is read from it.
metric_name: AUC(0-t)

Task: For NCCCC[C@H](NC(=O)[C@@H]1CCCN1C(=O)[C@@H]1CSSC[C@H](NC(=O)CNC(=O)CNC(=O)CN)C(=O)N[C@@H](Cc2ccc(O)cc2)C(=O)N[C@@H](Cc2ccccc2)C(=O)N[C@@H](CCC(N)=O)C(=O)N[C@@H](CC(N)=O)C(=O)N1)C(=O)NCC(N)=O [IV terlipressin, Terlipressin] (H-GGGCYFQNCPKG-NH2; disulfide 4-9) , what is its reported AUC(0-t)?
Output: 9.13 ng·h/mL
